Target: human Retinoid X Receptor beta (RXRb), RXRB (gene 6257)
Test: ATG_RXRb_TRANS: Attagene TRANS-FACTORIAL HepG2 Assay for human Retinoid X Receptor beta (RXRb) (AID 2283013)
Inconclusive results are not listed. Activity calls are given as the source filed them. Rule for the calls: active = hit-call score of the fitted dose curve at least 0.9, where 1 is the maximum; inconclusive = response in the unintended direction; inactive = score below 0.9.

{"columns": ["compound", "AC50"],
 "data": [
  ["CCC(C)N (stereo not drawn)", "inactive"],
  ["CCOC(=O)[C@H](O)[C@@H](O)C(=O)OCC", "inactive"],
  ["CC(C)=NNC(N)=S", "inactive"],
  ["CCCCNC(=S)NCCCC", "inactive"],
  ["O=C(Cl)c1c(Cl)c(Cl)c(C(=O)Cl)c(Cl)c1Cl", "100 µM (active)"],
  ["CC(C)c1ccc(O)c(C(C)C)c1", "9.23 µM (active)"],
  ["CC(C)c1cc(C(C)C)cc(C(C)C)c1", "0.399 µM (active)"],
  ["CC(C)c1cccc(C(C)C)c1N", "71.2 µM (active)"],
  ["CCCC1CCCC(=O)O1 (stereo not drawn)", "inactive"],
  ["Nc1ccc(O)c([N+](=O)[O-])c1", "inactive"],
  ["CC(C)c1ccc2ncccc2c1", "inactive"],
  ["CC1=NN(c2ccc(S(=O)(=O)O)cc2)C(=O)C1N=Nc1ccccc1 (stereo not drawn)", "inactive"],
  ["CC1=CCC2CC1C2(C)C (stereo not drawn)", "inactive"],
  ["CC1=CC(C)C(C=O)CC1 (stereo not drawn)", "inactive"],
  ["CC1=C(O)C(=O)C(C)O1 (stereo not drawn)", "inactive"],
  ["Nc1cccc(N)n1", "inactive"],
  ["CC1=CC=C(C(C)C)CC1", "inactive"],
  ["Nc1ccc(Cl)c(N)c1", "inactive"],
  ["C=CCCCCCCCCO", "inactive"],
  ["COC(=O)C=Cc1ccccc1", "inactive"],
  ["CCCCCCCOC(=O)c1ccc(O)cc1", "11.1 µM (active)"],
  ["O=C(Oc1ccccc1)c1ccccc1O", "inactive"],
  ["COC(=O)CC(C)CCC=C(C)C (stereo not drawn)", "inactive"]
]}

====

Target: Paired box protein Pax-6 (Homo sapiens)
Experiment: ATG_Pax6_CIS: Attagene CIS-FACTORIAL HepG2 Assay for human Paired Box 6 (PAX6) (AID 2282956)
Settings: HepG2 CIS-FACTORIAL PAX6 reporter transcription, RNA readout; actives raise or lower the signal
Calls of active or inactive are those of the source. The calls were made as follows: active = hit-call score of the fitted dose curve at least 0.9, where 1 is the maximum; inactive = score below 0.9.
readout kind: AC50

{"columns": ["compound", "test target", "readout kind", "value observed"],
 "data": [
  ["O=C(C=Cc1ccccc1)OCCc1ccccc1", "Paired box protein Pax-6 (Homo sapiens)", "AC50", "inactive"],
  ["C=CCCCCCCCCO", "Paired box protein Pax-6 (Homo sapiens)", "AC50", "inactive"],
  ["CC(C)=NNC(N)=S", "Paired box protein Pax-6 (Homo sapiens)", "AC50", "inactive"],
  ["CC(=O)OC1CCCCC1", "Paired box protein Pax-6 (Homo sapiens)", "AC50", "inactive"],
  ["CCCC/C=C/C=C\\C=O", "Paired box protein Pax-6 (Homo sapiens)", "AC50", "100 µM (active)"],
  ["C=C(C)C1CC=C(C)C(OC(C)=O)C1 (stereo unspecified)", "Paired box protein Pax-6 (Homo sapiens)", "AC50", "inactive"]
]}
